Biological target: T1, His-tagged human TNFR2 (Human TNFR2/CD120b/TNFRSF1B Protein, His Tag, Acrobiosystems Cat #: TN2-5227) (human, UniProt P20333 23-257)
T1 construct: Bought protein; also called hTNFR2-His; Recombinant human TNFR2 proteins with His-tag; not shown: His tag
T1 sequence: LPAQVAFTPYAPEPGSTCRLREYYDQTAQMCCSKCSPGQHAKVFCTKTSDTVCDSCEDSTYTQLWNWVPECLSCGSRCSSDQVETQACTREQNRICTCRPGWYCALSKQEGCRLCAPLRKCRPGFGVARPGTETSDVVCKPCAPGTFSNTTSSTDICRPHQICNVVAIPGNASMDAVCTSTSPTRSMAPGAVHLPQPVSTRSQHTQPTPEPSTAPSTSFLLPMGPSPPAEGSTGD
Test: SPR Biacore 8K, antibody captured on Protein A chip, hTNFR2-His as analyte, 1:1 model
Assay endpoint: Kd (nM)

INSERT INTO assay_data (binder, assay_endpoint, observed_value) VALUES
  ('BC-1F4-IgG1 (antibody, V domains shown, Human VH/VL joined to the human IgG1 subtype) VH: QVQLQQSGPGLVKPSQTLSLTCAISGDSVSSDSSAWNWIRQSPSRGLEWLGRTYYRSKWYNDYTVSVKSRITINPDTSKNQFSLQLNSVTPEDTAVYYCAREDGVGGTKDYFDYWGQGTLVTVSS VL: DIQMTQSPSSLSASVGDRVTITCQASQDISNYLNWYQQKPGKAPKLLIYDASNLETGVPSRFSGSGSGTDFTFTINSLQPEDFATYFCQQYDNLPITFGQGTRLEIK', 'Kd', 2.21);
